- Tested on: IA-LM
- Assay summary: relative viability (nuclei count vs DMSO), 5 days (fraction); higher = more cells survive
- Settings: first compound 50 µM
Entries and their measured relative viability follow.

Below, each entry is followed by its recorded relative viability result.
* O=C(O)CCCCC(CCSCc1ccccc1)SCc1ccccc1 (stereo not drawn) [CPI-613] + O=C(CCCCCCC(=O)Nc1ccccc1)NO [Vorinostat] (partner 1 µM) | 0.685
* O=C(O)CCCCC(CCSCc1ccccc1)SCc1ccccc1 (stereo not drawn) [CPI-613] + CC(C)C[C@H](NC(=O)[C@H](Cc1ccccc1)NC(=O)c1cnccn1)B(O)O [Bortezomib] (partner 0.002 µM) | 0.758

input: Notebook: pull reported relative viability for IA-LM, entry O=C(O)CCCCC(CCSCc1ccccc1)SCc1ccccc1 (stereo not drawn) [CPI-613] + CS(=O)(=O)CCNCc1ccc(-c2ccc3ncnc(Nc4ccc(OCc5cccc(F)c5)c(Cl)c4)c3c2)o1 [Lapatinib] (partner 2 µM)
output: 0.665
